These measurements were taken from the array DNA melting data of Ke et al. (doi:10.1101/2024.01.08.574731).

Each entry below lists one item and its recorded folding enthalpy value.
experiment: folding enthalpy; higher = less favourable; fluorescence melt of hairpins on a sequencing array, two-state fit; conditions: sodium 0.088 M
The answer should read as a number with its unit following.

Sample answers from the record:
biosequence="GATCAAACGATTGATC ((((((....))))))" endpoint_name="folding enthalpy" value_measured="-25.3 kcal/mol"
biosequence="GTGGATGGAAACGTCTAC ((.((.(....).)).))" endpoint_name="folding enthalpy" value_measured="-19.8 kcal/mol"
biosequence="GGTGACGCGAAAGCGACC (((..(((....))))))" endpoint_name="folding enthalpy" value_measured="-12.1 kcal/mol"
biosequence="GATCTTACCCAAGATC ((((((....))))))" endpoint_name="folding enthalpy" value_measured="-26.2 kcal/mol"
biosequence="GGGCTCGAAAGAGCACCC ((((((....)))..)))" endpoint_name="folding enthalpy" value_measured="-12.2 kcal/mol"
biosequence="GGCCTAGGAAACTAGGTC (.(((((....))))).)" endpoint_name="folding enthalpy" value_measured="-33.7 kcal/mol"

Kindly consider the entry below.
The measured folding enthalpy associated with GATCTTCAATAAGATC ((((((....)))))) reads -30.6 kcal/mol

----------
experiment: folding enthalpy; higher = less favourable; fluorescence melt of hairpins on a sequencing array, two-state fit; conditions: sodium 0.088 M
Everything with folding enthalpy lower than -20 kcal/mol is not met; everything else, including exactly -20 kcal/mol, is met.

Some solved entries appear below for comparison.
biosequence="GTGCGAGGAAACCCGCAC (((((.(....).)))))" label_value="not met"
biosequence="CGTGCGGAAACGCCACG ((((((....))).)))" label_value="not met"
biosequence="GCCTTCCCGAAAGGGGGC (((..(((....))))))" label_value=met

// inclusive: folding enthalpy at least -20 kcal/mol? input: GCGTGCGGACGC ((((....))))
met

// inclusive: folding enthalpy at least -20 kcal/mol? input: GCAACGCGAAAGCGCAGC ((..(((....)))..))
met

// inclusive: folding enthalpy at least -20 kcal/mol? input: GATCGTGTTCACGATC ((((((....))))))
not met

----------
Each entry below lists one item and its recorded Tm value.
assay: melting temperature; fluorescence melt of hairpins on a sequencing array, two-state fit, raised by 9.35 °C to match UV melts; conditions: sodium 0.088 M
Expressed in °C, but write only the number.

Sample answers from the record:
biosequence="GACGTGGGAAACCATGTC (((.(((....))).)))" endpoint_name=Tm value_measured=51.4
biosequence="GGCTCGGGAAACCAAGCC ((((.((....)).))))" endpoint_name=Tm value_measured=48.8

Kindly consider the entry below.
The measured Tm associated with CGGAAGCGGAAACGCCCG (((..(((....)))))) reads 50.5

----------
experiment: folding enthalpy; higher = less favourable; fluorescence melt of hairpins on a sequencing array, two-state fit; details: sodium 0.088 M
endpoint name: folding enthalpy (kcal/mol)
Expressed in kcal/mol, but write only the number.

biosequence="GGACGTGGAAACGTGTCC ((((..(....)..))))" endpoint_name="folding enthalpy" value_measured=-19.9
biosequence="GGCTTCGAAAGAAGGGCC ((((((....)))..)))" endpoint_name="folding enthalpy" value_measured=-19.6
biosequence="GCTAACGAAAGTTGCAGC ((((((....)))..)))" endpoint_name="folding enthalpy" value_measured=-15.5

The measured folding enthalpy associated with GACCAACGAAAGTTAGTC (((.(((....))).))) reads -26

The measured folding enthalpy associated with GATCTCCGTGGAGATC ((((((....)))))) reads -47.9
